Test: Protein binding in human plasma
Assay type: ADME, cell-free
Details: read-out: PPB
PARAMETER MEASURED: fraction unbound
When you answer, write just the number.

Record request: fraction unbound value, item Cc1nc(CN(C)[C@H]2CCCc3cccnc32)cc(N2CCN(C)CC2)n1
0.01

----------
Molecular target: CYP3A4 (Homo sapiens, UniProt P08684)
Sequence (P08684 whole entry): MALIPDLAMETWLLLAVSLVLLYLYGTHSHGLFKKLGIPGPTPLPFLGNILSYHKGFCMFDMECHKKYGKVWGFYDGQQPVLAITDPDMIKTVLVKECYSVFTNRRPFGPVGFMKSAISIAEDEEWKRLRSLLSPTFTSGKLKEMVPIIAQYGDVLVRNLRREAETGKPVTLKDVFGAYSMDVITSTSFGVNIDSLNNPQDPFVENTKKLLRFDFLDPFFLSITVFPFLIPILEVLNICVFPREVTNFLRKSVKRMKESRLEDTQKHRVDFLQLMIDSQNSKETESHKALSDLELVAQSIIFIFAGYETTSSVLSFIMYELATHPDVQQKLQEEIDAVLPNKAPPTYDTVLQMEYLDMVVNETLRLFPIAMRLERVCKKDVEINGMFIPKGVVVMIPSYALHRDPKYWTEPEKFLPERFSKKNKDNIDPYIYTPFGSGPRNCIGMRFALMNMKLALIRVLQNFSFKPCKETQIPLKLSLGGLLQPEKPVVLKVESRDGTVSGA
Assay: Inhibition of CYP3A4 in human liver microsomes using midazolam as substrate at 10 uM preincubated for 10 mins followed by NADPH addition and measured after 10 mins by LC-MS/MS analysis relative to control
Assay type: ADME
Settings: probe midazolam, time 20 min
PARAMETER MEASURED: inhibition at 10 min, 10 µM

GET /values?readout=inhibition at 10 min, 10 µM&system=CYP3A4 (Homo sapiens, UniProt P08684)&item= Cc1nc(CN(C)[C@H]2CCCc3cccnc32)cc(N2CCN(C)CC2)n1
48%

----------
Assay: Protein binding in mouse plasma
Type: ADME, cell-free
Details: read-out: PPB (converted)
PARAMETER MEASURED: fraction unbound

Record request: fraction unbound value, item Cc1nc(CN(C)[C@H]2CCCc3cccnc32)cc(N2CCN(C)CC2)n1
0.11

----------
Experiment: Apparent permeability across apical to basal side in human Caco2 cells at 10 uM after 90 mins by LC-MS/MS analysis
Type: ADME, cell-based
Settings: Caco-2
PARAMETER MEASURED: Papp A→B at 1.5 h, 10 µM (×10⁻⁶ cm/s)
Give your result in ×10⁻⁶ cm/s as a bare value.

Record request: Papp A→B at 1.5 h, 10 µM value, item Cc1nc(CN(C)[C@H]2CCCc3cccnc32)cc(N2CCN(C)CC2)n1
27

----------
Assay: Efflux ratio in across basolateral to apical side over apical to basolateral side in human Caco2 cells at 10 uM after 90 mins by LC-MS/MS analysis
Format: ADME, cell-based
Conditions: Caco-2
PARAMETER MEASURED: efflux ratio at 1.5 h, 10 µM
When you answer, write just the number.

Record request: efflux ratio at 1.5 h, 10 µM value, item Cc1nc(CN(C)[C@H]2CCCc3cccnc32)cc(N2CCN(C)CC2)n1
0.86

----------
Biological target: CYP2D6 (Homo sapiens, UniProt P10635)
Sequence (P10635 whole entry): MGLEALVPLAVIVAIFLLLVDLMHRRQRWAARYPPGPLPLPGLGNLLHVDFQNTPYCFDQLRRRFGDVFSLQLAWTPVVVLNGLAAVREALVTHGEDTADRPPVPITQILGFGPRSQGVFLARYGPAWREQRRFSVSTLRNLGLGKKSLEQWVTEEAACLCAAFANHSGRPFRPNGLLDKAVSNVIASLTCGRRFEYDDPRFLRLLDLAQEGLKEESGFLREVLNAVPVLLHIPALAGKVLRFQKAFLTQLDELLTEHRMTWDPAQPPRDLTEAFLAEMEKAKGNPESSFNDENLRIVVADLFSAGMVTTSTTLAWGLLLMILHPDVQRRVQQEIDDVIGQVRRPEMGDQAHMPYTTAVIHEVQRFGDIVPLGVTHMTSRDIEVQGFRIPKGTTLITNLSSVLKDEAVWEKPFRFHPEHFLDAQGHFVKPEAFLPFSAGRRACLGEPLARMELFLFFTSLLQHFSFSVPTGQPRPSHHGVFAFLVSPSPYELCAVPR
Assay: Inhibition of CYP2D6 in human liver microsomes using dextromethorphan as substrate at 10 uM preincubated for 10 mins followed by NADPH addition and measured after 10 mins by LC-MS/MS analysis relative to control
Type: ADME
Settings: probe dextromethorphan, time 20 min
PARAMETER MEASURED: inhibition at 10 min, 10 µM (%)
Give your result in % as a bare value.

Record request: inhibition at 10 min, 10 µM value, item Cc1nc(CN(C)[C@H]2CCCc3cccnc32)cc(N2CCN(C)CC2)n1
57

----------
Molecular target: C-X-C chemokine receptor type 4 (Homo sapiens, UniProt P61073)
Sequence (P61073 whole entry): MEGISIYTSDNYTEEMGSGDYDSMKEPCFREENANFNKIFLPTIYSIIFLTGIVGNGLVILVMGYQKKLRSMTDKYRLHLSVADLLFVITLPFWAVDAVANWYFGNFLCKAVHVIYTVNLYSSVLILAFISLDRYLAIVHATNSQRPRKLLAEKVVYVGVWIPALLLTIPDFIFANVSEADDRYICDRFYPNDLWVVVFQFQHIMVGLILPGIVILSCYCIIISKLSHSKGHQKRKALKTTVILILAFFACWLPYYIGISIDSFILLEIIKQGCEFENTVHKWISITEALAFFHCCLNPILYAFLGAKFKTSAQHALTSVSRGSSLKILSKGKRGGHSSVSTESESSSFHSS
Test: Antagonist activity at CXCR4 in human HPBALL cells assessed as inhibition of APC-conjugate clone 12G5 antibody signal incubated for 3 hrs by flow cytometric analysis
Type: cell-based
Kindly state log10(IC50) for each of the entries shown.
Lab note - IC50 converted to log10 from values in nM.

Record request: log10(IC50) value, item CN1CCN(c2cc(CN(C)C3CCCc4cccnc43)nc(N3CCOCC3)n2)CC1 (racemic)
3.39

Record request: log10(IC50) value, item CN1CCN(c2cc(CN(C)C3CCCc4cccnc43)nc(-c3cnn(C)c3)n2)CC1 (racemic)
3.11

Record request: log10(IC50) value, item Cc1nc(CN(C)[C@H]2CCCc3cccnc32)cc(N2CCN(C)[C@@H](C)C2)n1
1.15

Record request: log10(IC50) value, item Cc1nc(CN(C)[C@H]2CCCc3cccnc32)cc(N2CCN3CCC[C@H]3C2)n1
1.26

Record request: log10(IC50) value, item CC(C)Nc1nc(CN(C)C2CCCc3cccnc32)cc(N2CCN(C)CC2)n1 (racemic)
2.97

----------
Experiment: Intrinsic clearance in rat liver microsomes at 1 uM preincubated for 10 mins followed by NADPH addition and measured up to 60 mins by LC-MS/MS analysis
Type: ADME, Microsome
Conditions: time <=70 min, read-out: CLH
PARAMETER MEASURED: CLint scaled at 1 µM
Field: value (include unit after the number)

Record request: CLint scaled at 1 µM value, item Cc1nc(CN(C)[C@H]2CCCc3cccnc32)cc(N2CCN(C)CC2)n1
1570 mL/min/kg

----------
Target: C-X-C chemokine receptor type 4 (Homo sapiens)
Assay: Antagonist activity at CXCR4 in human HPBALL cells assessed as inhibition of APC-conjugate clone 12G5 antibody signal incubated for 3 hrs by flow cytometric analysis
Format: cell-based
IC50 under 70 nM gets label 1, anything at or over 70 nM gets label 0.

Please let me know if Cc1nc(CN(C)[C@H]2CCCc3cccnc32)cc(N2CCN(C)CC2)n1 shows IC50 below 70 nM.
label 1

Please let me know if CN1CCN(c2cc(CN(C)C3CCCc4cccnc43)nc(N(C)CCO)n2)CC1 (racemic) shows IC50 below 70 nM.
label 0

Please let me know if Cc1nc(CN(C)[C@H]2CCCc3cccnc32)cc(NCCN2CCOCC2)n1 shows IC50 below 70 nM.
label 1

Please let me know if CNc1nc(CN(C)C2CCCc3cccnc32)cc(N2CCN(C)CC2)n1 (racemic) shows IC50 below 70 nM.
label 1

Please let me know if Cc1nc(CN(C)[C@H]2CCCc3cccnc32)cc(N2CCC(N3CCN(C)CC3)CC2)n1 shows IC50 below 70 nM.
label 0

Please let me know if CN1CCN(c2cc(CN(C)[C@H]3CCCc4cccnc43)nc(C(F)(F)F)n2)CC1 shows IC50 below 70 nM.
label 0

Please let me know if Cc1nc(CN(C)[C@H]2CCCc3cccnc32)cc(N2CCN(C)C[C@@H]2C)n1 shows IC50 below 70 nM.
label 1

Please let me know if Cc1nc(CN(C)C2CCCc3cccnc32)c(C#N)c(N2CCN(C)CC2)n1 (racemic) shows IC50 below 70 nM.
label 1

Please let me know if Cc1nc(CN(C)[C@H]2CCCc3cccnc32)cc(N2CCN3CCC[C@@H]3C2)n1 shows IC50 below 70 nM.
label 1

----------
Molecular target: Voltage-gated inwardly rectifying potassium channel KCNH2 (Homo sapiens)
Sequence (Q12809 whole entry): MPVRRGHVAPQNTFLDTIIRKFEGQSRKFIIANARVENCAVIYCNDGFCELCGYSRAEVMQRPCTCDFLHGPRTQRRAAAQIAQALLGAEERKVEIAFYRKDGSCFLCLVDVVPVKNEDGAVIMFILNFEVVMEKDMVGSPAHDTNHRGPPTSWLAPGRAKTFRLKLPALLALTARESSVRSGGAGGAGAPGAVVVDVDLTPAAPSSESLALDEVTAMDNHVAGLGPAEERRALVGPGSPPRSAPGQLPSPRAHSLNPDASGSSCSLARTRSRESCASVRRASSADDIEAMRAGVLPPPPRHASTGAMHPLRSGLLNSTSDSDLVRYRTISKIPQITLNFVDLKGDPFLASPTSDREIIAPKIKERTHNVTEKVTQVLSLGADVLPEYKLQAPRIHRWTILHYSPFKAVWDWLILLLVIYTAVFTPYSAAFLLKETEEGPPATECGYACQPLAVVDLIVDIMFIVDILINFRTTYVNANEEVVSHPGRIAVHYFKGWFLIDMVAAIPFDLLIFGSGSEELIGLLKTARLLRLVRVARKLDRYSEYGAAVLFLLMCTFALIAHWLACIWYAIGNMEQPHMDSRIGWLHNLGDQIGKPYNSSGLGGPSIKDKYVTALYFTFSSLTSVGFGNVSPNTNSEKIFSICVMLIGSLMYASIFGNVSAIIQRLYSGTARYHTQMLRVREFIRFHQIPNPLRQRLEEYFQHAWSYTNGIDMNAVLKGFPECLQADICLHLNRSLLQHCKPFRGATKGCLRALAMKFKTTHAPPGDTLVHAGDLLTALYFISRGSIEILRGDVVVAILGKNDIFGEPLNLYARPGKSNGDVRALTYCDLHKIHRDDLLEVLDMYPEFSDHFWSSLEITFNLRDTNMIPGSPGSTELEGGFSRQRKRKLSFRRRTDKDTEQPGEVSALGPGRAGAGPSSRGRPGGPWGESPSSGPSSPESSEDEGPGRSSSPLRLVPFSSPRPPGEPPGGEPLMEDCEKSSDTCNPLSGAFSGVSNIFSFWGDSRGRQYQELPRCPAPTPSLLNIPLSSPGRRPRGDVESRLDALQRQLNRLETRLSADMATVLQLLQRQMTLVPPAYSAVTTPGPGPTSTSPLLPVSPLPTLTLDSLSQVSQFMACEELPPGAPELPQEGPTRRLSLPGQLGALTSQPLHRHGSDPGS
Assay: Inhibition of human ERG stably expressed in CHO cells after 4 mins
PARAMETER MEASURED: IC50 (µM)
Give your result in µM as a bare value.

GET /values?readout=IC50&system=Voltage-gated inwardly rectifying potassium channel KCNH2 (Homo sapiens)&item= Cc1nc(CN(C)[C@H]2CCCc3cccnc32)cc(N2CCN(C)CC2)n1
8
